methodSummary: Glutathione peroxidase activity, t-BuOOH as hydroperoxide
Format: biochemical
experimentalConditions: compound 20 μM, pH = 7.3, 37° C., [GSH] = 2 mM
Experimental: To 1.5 ml of HEPES buffer, 50 mM, pH=7.3, containing 0.2 mM of DTPA, 0.144 mM of NADPH, 2.2 mM of reduced glutathione and 1.1 U/ml of glutathione disulfide reductase, pre-equilibrated for 2 minutes at 37° C., 100 μl of an ethanolic mother solution of the compound to be tested or 100 μl of absolute ethanol (blank) was added. Each compound was tested at a final concentration of 20 μM. Subsequently, 50 μl of the following was added: tertiobutyl hydroperoxide (t-BuOOH), 6.6 mM in ultrapure water; […]
measurementKind: Glutathione peroxidase activity, t--BuOOH

{"columns": ["compound", "reportedMeasurement"],
 "data": [
  ["CC1(C)N[Se](=O)c2ccccc21 (centres unmarked) [BXT-51059]", "0.2 nmoles of hydroperoxide reduced/min"],
  ["CCN1CC(C)(C)c2ccccc2[Se]1 [BXT-51078, 4,4-dimethyl-2-ethyl-benzisoselenazine]", "16.5 nmoles of hydroperoxide reduced/min"],
  ["CC1(C)N[Se]c2ccc([N+](=O)[O-])cc21 [BXT-51075]", "3,2 nmoles of hydroperoxide reduced/min"],
  ["CC1(C)CN[Se]c2ccccc21 [BXT-51072, 4,4-dimethyl-benzisoselenazine]", "27.4 nmoles of hydroperoxide reduced/min"],
  ["COc1ccc2c(c1)C(C)(C)CN[Se]2 [BXT-51077, 4,4-dimethyl-6-methoxy-benzisoselenazine]", "35.4 nmoles of hydroperoxide reduced/min"]
]}
